Biological target: rhBACE-1 β-Secretase recombinant human (Homo sapiens, UniProt P56817)
Construct: purchased R&D Systems 931-AS
Sequence (P56817 46-457 limits assumed): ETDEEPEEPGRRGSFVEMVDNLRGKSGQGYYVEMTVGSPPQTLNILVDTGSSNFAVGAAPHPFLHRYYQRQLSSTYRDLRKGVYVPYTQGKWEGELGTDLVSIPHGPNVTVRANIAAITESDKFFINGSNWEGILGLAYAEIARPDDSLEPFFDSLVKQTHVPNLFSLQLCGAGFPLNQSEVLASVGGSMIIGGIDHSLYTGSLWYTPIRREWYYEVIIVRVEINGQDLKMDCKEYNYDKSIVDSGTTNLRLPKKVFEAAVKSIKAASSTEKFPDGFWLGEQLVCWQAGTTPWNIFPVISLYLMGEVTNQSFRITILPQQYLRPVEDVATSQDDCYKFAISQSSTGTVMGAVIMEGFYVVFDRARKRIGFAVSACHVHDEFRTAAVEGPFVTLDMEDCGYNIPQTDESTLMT
Experiment: BACE assay (FRET)
Format: biochemical
Conditions: compound at 10 μM; percentage of enzyme activity
Classification by % of BACE activity | ranges: bottom bin: < 6%; middle bin: ≥ 6% and < 50%; top bin: ≥ 50%

[in] Which band does CC(C)=CCC/C(C)=C/CC/C(C)=C/CNc1cc(C(=O)O)ccc1O fall in?
[out] middle bin

[in] Which band does COC(=O)c1ccc(OC)c(N(CC=C(C)CCC=C(C)COC2CCCCO2)CC=C(C)CCC=C(C)COC2CCCCO2)c1 (centres unmarked) fall in?
[out] middle bin

[in] Which band does COc1ccccc1NCC=C(C)CCC=C(C)CCC=C(C)C fall in?
[out] top bin

[in] Which band does CC(C)=CCC/C(C)=C/CC/C(C)=C/CNc1cccc(C(=O)O)c1 fall in?
[out] middle bin

[in] Which band does COC(=O)c1cccc(NC/C=C(\C)CC/C=C(\C)CCC=C(C)C)c1 fall in?
[out] bottom bin

[in] Which band does COC(=O)c1ccc(O)c(N(CC=C(C)CCC=C(C)CCC=C(C)C)CC=C(C)CCC=C(C)CCC=C(C)C)c1 fall in?
[out] middle bin

[in] Which band does COc1ccc(C(=O)O)cc1NC/C=C(\C)CC/C=C(\C)CCC=C(C)C fall in?
[out] bottom bin

[in] Which band does COc1ccc(C(=O)N2CCN(CCO)CC2)cc1N(CC=C(C)CCC=C(C)C)CC=C(C)CCC=C(C)C fall in?
[out] top bin

[in] Which band does COC(=O)c1cccc(N(CC=C(C)CCC=C(C)C)CC=C(C)CCC=C(C)C)c1 fall in?
[out] bottom bin
